Taken from paper PMC6063448.

Tested on: proteinase K
Construct: purchased Sigma-Aldrich Corporation, Spain
Assay: Susceptibility to protease degradation
Assay type: in vitro ADME
Settings: proteinase K (isolated protease) in TRIS buffer; 50 μg/mL peptide, 1 μg/mL proteinase K, 100 mM TRIS buffer pH 7.6, 25°C, 60 min; decrease of HPLC peak area (220 nm); read-out: Digestion with proteinase K (percentage of degraded peptide)
# Lookup of reported metabolised at 1 h, 50 μg/mL keyed by entry
Note: unit % is implicit; provide only the numeric part.

Worked examples follow.
compound	metabolised at 1 h, 50 μg/mL, %
CC[C@H](C)[C@H](NC(=O)[C@H](CCCCN)NC(=O)[C@H](CCCCN)NC(=O)[C@H](Cc1ccccc1)NC(=O)[C@H](CC(C)C)NC(=O)[C@H](CCCCN)NC(=O)[C@@H](N)CCCCN)C(=O)N[C@@H](CC(C)C)C(=O)N[C@@H](CCCCN)C(=O)N[C@@H](Cc1ccc(O)cc1)C(=O)N[C@@H](CC(C)C)C(N)=O [BP100]	24
CCCC(=O)NCCCC[C@H](NC(=O)[C@@H](NC(=O)[C@H](CCCCN)NC(=O)[C@H](CCCCN)NC(=O)[C@H](Cc1ccccc1)NC(=O)[C@H](CC(C)C)NC(=O)[C@H](CCCCN)NC(=O)[C@H](CCCCN)NC(C)=O)[C@@H](C)CC)C(=O)N[C@@H](CCCCN)C(=O)N[C@@H](Cc1ccc(O)cc1)C(=O)N[C@@H](CC(C)C)C(N)=O [BP387, Ac-KKLFKKIK(COC3H7)KYL-NH2]	15

As a next step, examine the compound that follows.
Prompt line: Query: metabolised at 1 h, 50 μg/mL; subject: CCCC(=O)NCCCC[C@H](NC(=O)[C@H](CCCCN)NC(=O)[C@H](CC(C)C)NC(=O)[C@@H](NC(=O)[C@H](CCCCN)NC(=O)[C@H](CCCCN)NC(=O)[C@H](Cc1ccccc1)NC(=O)[C@H](CC(C)C)NC(=O)[C@H](CCCCN)NC(=O)[C@H](CCCCN)NC(C)=O)[C@@H](C)CC)C(=O)N[C@@H](CC(C)C)C(N)=O [BP389, Ac-KKLFKKILKK(COC3H7)L-NH2]
Response line: 29

* * *

Tested on: Erwinia amylovora PMV6076
Assay: MIC, growth inhibition in microtiter plates (TSB)
Format: cell-based
Conditions: Ea, 25°C, 48 h, OD 600 nm, lowest concentration with no growth, given as interval of tested concentrations, three replicates, experiment repeated twice
observed_property: MIC

Prompt line: Item CCCCCCCCCCCC(=O)NCCCC[C@H](NC(=O)[C@H](CCCCN)NC(=O)[C@H](CCCCN)NC(=O)[C@H](Cc1ccccc1)NC(=O)[C@H](CC(C)C)NC(=O)[C@H](CCCCN)NC(=O)[C@H](CCCCN)NC(C)=O)C(=O)N[C@@H](CC(C)C)C(=O)N[C@@H](CCCCN)C(=O)N[C@@H](Cc1ccc(O)cc1)C(=O)N[C@@H](CC(C)C)C(N)=O [BP398, Ac-KKLFKKK(COC11H23)LKYL-NH2] with Erwinia amylovora PMV6076 - MIC?
Response line: >25 µM

* * *

System: defense-related genes in tomato plants
Assay: Induction of defense gene expression of tomato plants (RT-qPCR)
Type: in vivo, tomato cv. Rio Grande
Conditions: tomato leaves sprayed, 24 h; peptides and flg15 125 μM, JA 2.5 mM, ASM 300 mg/L; ΔΔCt relative to actin; above 2 = overexpression
# BCB gene expression, fold induction listing for each entry below
Format: numeric value only, no unit, no commentary.

molecule	observed_property	result
CSC(=O)c1cccc2nnsc12 [ASM, acybenzolar-S-methyl, reference compound]	BCB gene expression, fold induction	12.1
CCCCCC(=O)NCCCC[C@H](NC(=O)[C@H](CCCCN)NC(=O)[C@H](CCCCN)NC(=O)[C@H](Cc1ccccc1)NC(=O)[C@H](CC(C)C)NC(=O)[C@H](CCCCN)NC(=O)[C@H](CCCCN)NC(C)=O)C(=O)N[C@@H](CC(C)C)C(=O)N[C@@H](CCCCN)C(=O)N[C@@H](Cc1ccc(O)cc1)C(=O)N[C@@H](CC(C)C)C(N)=O	BCB gene expression, fold induction	1.0
CCCC(=O)NCCCC[C@H](NC(=O)[C@H](CCCCN)NC(=O)[C@H](CC(C)C)NC(=O)[C@@H](NC(=O)[C@H](CCCCN)NC(=O)[C@H](CCCCN)NC(=O)[C@H](Cc1ccccc1)NC(=O)[C@H](CC(C)C)NC(=O)[C@H](CCCCN)NC(=O)[C@H](CCCCN)NC(C)=O)[C@@H](C)CC)C(=O)N[C@@H](CC(C)C)C(N)=O	BCB gene expression, fold induction	2.1

Prompt line: What value of measured BCB gene expression, fold induction is listed for CCCCCC(=O)NCCCC[C@H](NC(=O)[C@H](Cc1ccc(O)cc1)NC(=O)[C@H](CCCCN)NC(=O)[C@H](CC(C)C)NC(=O)[C@@H](NC(=O)[C@H](CCCCN)NC(=O)[C@H](CCCCN)NC(=O)[C@H](Cc1ccccc1)NC(=O)[C@H](CC(C)C)NC(=O)[C@H](CCCCN)NC(=O)[C@H](CCCCN)NC(C)=O)[C@@H](C)CC)C(N)=O ?
Response line: 1.3

Prompt line: What would you report for CCCCCCCCCCCC(=O)NCCCC[C@H](NC(=O)[C@H](CC(C)C)NC(=O)[C@@H](NC(=O)[C@H](CCCCN)NC(=O)[C@H](CCCCN)NC(=O)[C@H](Cc1ccccc1)NC(=O)[C@H](CC(C)C)NC(=O)[C@H](CCCCN)NC(=O)[C@H](CCCCN)NC(C)=O)[C@@H](C)CC)C(=O)N[C@@H](Cc1ccc(O)cc1)C(=O)N[C@@H](CC(C)C)C(N)=O ?
Response line: 0.6
